Molecular target: α1-adrenergic receptor
Assay: α1-Adrenergic receptor binding test ([³H] prazosin displacement, rat brain membrane preparation)
Details: 0.6 nM [³H] prazosin, 25 °C for 30 minutes, read-out: IC₅₀
MEASURE: IC50 (nM)
Report only the number, with the unit nM understood.

Consider the following illustrative entries.
> print(dat)
                                   compound  measure  numeric.result
1  COc1ccccc1N1CCN(CCc2cn(CC(=O)C(C)C)c3ccccc23)CC1     IC50           0.679
2  CCCC(=O)Cn1cc(CCN2CCN(c3ccccc3OC)CC2)c2ccccc21     IC50           0.801
3  CCC(=O)Cn1cc(CCN2CCN(c3ccc(F)cc3)CC2)c2ccccc21     IC50            5.13
4  CCC(=O)Cn1cc(CCN2CCN(c3ccccc3OC)CC2)c2ccccc21     IC50            7.75
5  CCC(=O)Cn1cc(CCN2CCN(c3cccc(C)c3C)CC2)c2ccccc21     IC50            3.93

Now for another entry.
## Input Reported IC50, compound COc1ccccc1N1CCN(CCCNc2cc(=O)n(C)c(=O)n2C)CC1 [urapidil, reference compound] : ____
## Output 741
